conditions: in acetonitrile, 334.15 K
READOUT_NAME: solubility (mole fraction)
In your answer, state the number alone without any accompanying words.

Per the records, this molecule ( C=CC(=O)Nc1cc(F)c(Br)c(F)c1 ) has solubility (mole fraction) equal to 0.0423

###

conditions: in acetonitrile, 343.55 K
READOUT_NAME: solubility (mole fraction)

Looking up C=CC(=O)Nc1cc(F)c(Br)c(F)c1 , I see its solubility (mole fraction) listed as 0.0596

###

settings: in ethanol, 301.55 K
READOUT_NAME: solubility (mole fraction)
Lab note: jot down the number only; don't add units.

The compound listed as C=CC(=O)Nc1cc(F)c(Br)c(F)c1 has a reported solubility (mole fraction) of 0.0292

Recorded values, source BigSolDB 2.1.
